target: Glycogen synthase kinase-3 beta (Homo sapiens); test: Inhibition of GSK3beta (unknown origin) using GS-2 peptide substrate incubated for 30 mins by kinase-Glo luminescent assay
Sequence (P49841 whole entry): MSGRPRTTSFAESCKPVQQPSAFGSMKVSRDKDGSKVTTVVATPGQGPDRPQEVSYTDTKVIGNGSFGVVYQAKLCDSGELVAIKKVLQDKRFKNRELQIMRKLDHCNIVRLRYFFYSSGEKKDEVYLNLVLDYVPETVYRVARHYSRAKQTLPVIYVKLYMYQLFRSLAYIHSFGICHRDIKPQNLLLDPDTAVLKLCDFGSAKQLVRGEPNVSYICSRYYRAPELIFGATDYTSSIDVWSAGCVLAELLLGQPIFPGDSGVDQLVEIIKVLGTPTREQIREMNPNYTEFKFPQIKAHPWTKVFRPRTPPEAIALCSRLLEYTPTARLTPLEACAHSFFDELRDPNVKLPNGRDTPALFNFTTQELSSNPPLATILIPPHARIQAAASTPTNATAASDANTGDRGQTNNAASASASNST
Readout Type: IC50 (µM)

Some solved entries appear below for comparison.
- Smiles: "O=C1NC(=O)/C(=C/c2ccc(O)c([N+](=O)[O-])c2)S1"
  Assay Target: "Glycogen synthase kinase-3 beta (Homo sapiens)"
  U: "µM"
  Measured: 9.22
- Smiles: "O=C1NC(=O)/C(=C/c2ccc3c(c2)OCCO3)S1"
  Assay Target: "Glycogen synthase kinase-3 beta (Homo sapiens)"
  U: "µM"
  Measured: 7.01

(I) CN(C)c1cccc(/C=C2\SC(=O)NC2=O)c1
(II) COc1ccc2nc(Cl)c(/C=C3\SC(=O)NC3=O)cc2c1
(III) O=C1NC(=O)/C(=C/c2ccncc2)S1
query: Please list the entries, largest IC50 first. A ranking is expressed here by listing the labels in the requested order.
result: I, II, III
(I: 8.54 µM, II: 3.55 µM, III: 1.42 µM)

====

Measured inhibition of individual entries
target: Glycogen synthase kinase-3 beta (Homo sapiens); assay: Inhibition of GSK3beta (unknown origin) at 10 uM using GS-2 peptide substrate incubated for 30 mins by kinase-Glo luminescent assay
Sequence (P49841 whole entry, looked up): as the sequence (P49841 whole entry) above

Some solved entries appear below for comparison.
- Smiles: "COc1cc(/C=C2\\SC(=O)NC2=O)cc2c1OCO2"
  inhibition: "< 50%"
- Smiles: "O=C1NC(=O)/C(=C/c2ccccc2)S1"
  inhibition: "< 50%"
- Smiles: "CN(C)c1ccccc1/C=C1\\SC(=O)NC1=O"
  inhibition: "> 50%"
- Smiles: "O=C1NC(=O)/C(=C/c2cccc(O)c2)S1"
  inhibition: "< 50%"
- Smiles: "O=C1NC(=O)/C(=C/c2ccc(O)cc2)S1"
  inhibition: "> 50%"
- Smiles: "O=C1NC(=O)/C(=C/c2c[nH]c3ccccc23)S1"
  inhibition: "> 50%"

query: # lookup: inhibition of O=C1NC(=O)/C(=C/c2ccncc2)S1
result: > 50%

====

molecular target: Glycogen synthase kinase-3 beta (Homo sapiens); test: Inhibition of GSK3beta (unknown origin) using GS-2 peptide substrate incubated for 30 mins by kinase-Glo luminescent assay
pIC50: −log10 of the molar value.
Readout Type: pIC50

Some solved entries appear below for comparison.
- Smiles: "O=C1NC(=O)/C(=C/c2ccc(O)cc2)S1"
  Assay Target: "Glycogen synthase kinase-3 beta (Homo sapiens)"
  Measured: 5.05
- Smiles: "O=C1NC(=O)/C(=C/c2cc3ccccc3s2)S1"
  Assay Target: "Glycogen synthase kinase-3 beta (Homo sapiens)"
  Measured: 5.13
- Smiles: "O=C1NC(=O)/C(=C/c2c[nH]c3ccccc23)S1"
  Assay Target: "Glycogen synthase kinase-3 beta (Homo sapiens)"
  Measured: 5.31
- Smiles: "O=C1NC(=O)/C(=C/c2cc3ccccc3nc2Cl)S1"
  Assay Target: "Glycogen synthase kinase-3 beta (Homo sapiens)"
  Measured: 5.21
- Smiles: "O=C1NC(=O)/C(=C/c2c(-c3ccccc3)[nH]c3ccccc23)S1"
  Assay Target: "Glycogen synthase kinase-3 beta (Homo sapiens)"
  Measured: 5.22

(I) COc1ccc(/C=C2\SC(=O)NC2=O)c(O)c1
(II) COc1ccc2c(c1)c(/C=C1\SC(=O)NC1=O)cn2C
query: Which value of pIC50 is smaller, the one for I or the one for II ? Kindly state the label of the option you pick.
result: I
(I: 5.15, II: 6.05)
